Recorded values, source PubChem BioAssay (NCI).

- Tested on: IGROV1 ovarian
- Test Summary: NCI-60 one-dose screen, 48 h (100 = growth as untreated, 0 = no growth, -100 = all killed)
- Reported Conditions: 10 µM unless noted
This is part of a sample that, as a whole, favours compounds with a hit. Of some 83,000 tested, about 20% had one in any assay.

{"Molecule": "COc1ccc(Nc2ncc(C(N)=O)c(NCCCNC(=O)C3CCC3)n2)cc1", "Subject Of Test": "IGROV1 ovarian", "Output Unit": "%", "growth": 66.8}
{"Molecule": "N#Cc1c(-c2ccccc2)c(C#N)c2c(C#N)c(N)nn2c1N", "Subject Of Test": "IGROV1 ovarian", "Output Unit": "%", "growth": 31.9}
{"Molecule": "CCOC(=O)Cn1c(=O)c2c3ccccc3n(C)c2n2nnc(-c3ccccc3)c12", "Subject Of Test": "IGROV1 ovarian", "Output Unit": "%", "growth": 58.6}
{"Molecule": "Cc1c2cc[nH]c(=O)c2c(C)c2c1[nH]c1ccc(OC(=O)c3ccccc3)cc12", "Subject Of Test": "IGROV1 ovarian", "Output Unit": "%", "growth": 30.6}
{"Molecule": "Cc1ccc(C)n1/C=C/n1c(C)ccc1C", "Subject Of Test": "IGROV1 ovarian", "Output Unit": "%", "growth": 16.2}
{"Molecule": "CO[C@H](C(=O)[C@@H](O)[C@@H](C)O)[C@@H]1Cc2cc3cc(O[C@H]4C[C@@H](O[C@H]5C[C@@H](O)[C@H](O)C(C)O5)[C@H](O)C(C)O4)c(C)c(O)c3c(O)c2C(=O)[C@H]1O[C@H]1C[C@@H](O[C@H]2C[C@@H](O[C@H]3C[C@@H](OC)[C@H](O)C(C)O3)[C@@H](O)C(C)O2)C(O)(O)C(C)O1 (some centres undefined)", "Subject Of Test": "IGROV1 ovarian", "Output Unit": "%", "growth": 22.3}
{"Molecule": "COc1ccc(C2CC(c3ccc4c(c3)OCO4)=Nc3c(N)ncnc3N2)cc1 (centres undefined)", "Subject Of Test": "IGROV1 ovarian", "Output Unit": "%", "growth": 104}
{"Molecule": "c1ccc(CNc2ccc3nc(CCC4CCCCC4)[nH]c3c2)cc1", "Subject Of Test": "IGROV1 ovarian", "Output Unit": "%", "growth": 53.5}
{"Molecule": "c1ccc(CCc2ccccc2-c2cc(-c3ccccc3)on2)cc1", "Subject Of Test": "IGROV1 ovarian", "Output Unit": "%", "growth": 66.4}
{"Molecule": "CCCn1c(=S)sc2c1nc(C)n1c(Nc3ccccc3)nnc21", "Subject Of Test": "IGROV1 ovarian", "Output Unit": "%", "growth": 80.3}
{"Molecule": "CCOC(=O)c1c(NC(=O)c2ccc(OC)cc2)sc2c(CN(C)C)c(O)ccc12", "Subject Of Test": "IGROV1 ovarian", "Output Unit": "%", "growth": 90.7}
{"Molecule": "CCN(CC)CCN(CCN(CC)CC)c1ccccc1", "Subject Of Test": "IGROV1 ovarian", "Output Unit": "%", "growth": 90}
{"Molecule": "COc1ccc(NC(=O)c2cccc(C3CCc4c(cc(OC)c(OC)c4OC)O3)c2)cc1 (centres undefined)", "Subject Of Test": "IGROV1 ovarian", "Output Unit": "%", "growth": 37.6}
{"Molecule": "N#Cc1c(NC(=O)c2cccs2)[n+]([O-])c2ccc(Cl)cc2[n+]1[O-]", "Subject Of Test": "IGROV1 ovarian", "Output Unit": "%", "growth": -19.9}
{"Molecule": "COc1ccc(C/C(C)=C(/c2ccc(OCCN3CCCCCC3)cc2)c2ccc(OC(=O)NCc3ccccc3)cc2)cc1", "Subject Of Test": "IGROV1 ovarian", "Output Unit": "%", "growth": 93}
{"Molecule": "Cc1ncc(C(=O)Nc2ccc(CN3CCN(C)CC3)c(C(F)(F)F)c2)cc1C#Cc1cnc(N)c2ccncc12", "Subject Of Test": "IGROV1 ovarian", "Output Unit": "%", "growth": -42.5}
{"Molecule": "CCOc1ccc(/C=N\\N=C\\c2ccc(OCC)cc2)cc1", "Subject Of Test": "IGROV1 ovarian", "Output Unit": "%", "growth": 78.5}
{"Molecule": "CCCCCCCCn1ccc2cc(NC(=O)Cn3cc(CN4CCOCC4)nn3)ccc21", "Subject Of Test": "IGROV1 ovarian", "Output Unit": "%", "growth": 96.4}
{"Molecule": "CCOC(=O)c1c2c(n3ccccc13)C(=O)c1ncccc1C2=O", "Subject Of Test": "IGROV1 ovarian", "Output Unit": "%", "growth": 31.8}

----------
- Tested on: SF-295 CNS
- Test Summary: NCI-60 one-dose screen, 48 h
- Reported Conditions: 10 µM unless noted
- Experimental: Cells are grown in 96 well plates and exposed to the test compound for 48 hours. Compounds are tested at a single concentration, which is 10^-5 M for most compounds. The reported endpoint is percent growth (GI% or GIPRCNT), where numbers from 0 - 100% represent growth inhibition, and numbers from -100% - 0 represent cell death. For example, a value of 40 represents 60% growth inhibition. A value of 0 means no net growth occurred over the course of the experiment. […]
This is part of a sample that, as a whole, favours compounds with a hit. Of some 83,000 tested, about 20% had one in any assay. The source made the active and inactive calls. How the source made its calls: active means growth percent below 10; inactive means the rest.
Outcomes: yes (1) = active, no (0) = inactive

{"Compound": "N#Cc1c(-c2ccccc2)cc(-c2ccccc2)n(CCCC(=O)NO)c1=O", "Subject Of Test": "SF-295 CNS", "Class": "no (0)"}
{"Compound": "CCN(CC)c1ccc(N2C(=O)/C(=C/c3cccs3)SC2=S)cc1", "Subject Of Test": "SF-295 CNS", "Class": "no (0)"}
{"Compound": "C=CCn1c(SCC(=O)Nc2ccc(C(=O)/C=C/c3ccc(OC)cc3)cc2)nnc1-c1ccccc1", "Subject Of Test": "SF-295 CNS", "Class": "no (0)"}
{"Compound": "Clc1ccc(-c2cn3ccsc3n2)c(Cl)c1Cl", "Subject Of Test": "SF-295 CNS", "Class": "no (0)"}
{"Compound": "COc1cc(C(=O)C(=O)c2cc(OC)c(O)c(OC)c2)cc(OC)c1O", "Subject Of Test": "SF-295 CNS", "Class": "no (0)"}
{"Compound": "COc1ccc2nc3ccccc3c(NCc3ccccc3)c2c1", "Subject Of Test": "SF-295 CNS", "Class": "no (0)"}
{"Compound": "COc1ccc2c(c1)c(-c1cc(-c3cn(C)c4ccc(OC)cc34)on1)cn2C", "Subject Of Test": "SF-295 CNS", "Class": "no (0)"}
{"Compound": "COC(=O)c1c2c(n3ccc(C)cc13)C(=O)c1ccccc1C2=O", "Subject Of Test": "SF-295 CNS", "Class": "no (0)"}
{"Compound": "Cc1cc(C)cc(Nc2ccc([N+](=O)[O-])c(NCCN3CCOCC3)n2)c1", "Subject Of Test": "SF-295 CNS", "Class": "no (0)"}
{"Compound": "CC(C)c1ccc(C(=O)Nc2sc3cc(O)ccc3c2C#N)cc1", "Subject Of Test": "SF-295 CNS", "Class": "no (0)"}
{"Compound": "CC1COCC(C)N1C1=C(Cl)C(=O)c2ccccc2C1=O (stereo unspecified)", "Subject Of Test": "SF-295 CNS", "Class": "no (0)"}
{"Compound": "CCN(CCO)CC(C)Nc1ccc([N+](=O)[O-])c2sc3ccccc3c(=O)c12 (stereo unspecified)", "Subject Of Test": "SF-295 CNS", "Class": "no (0)"}
{"Compound": "Cc1ccc2[nH]c(-c3ccc(S(C)(=O)=O)cc3)c(/C=N/N=C(N)N)c2c1", "Subject Of Test": "SF-295 CNS", "Class": "no (0)"}
{"Compound": "COc1ccc(C2=CN3CC=CCC3CC2=O)cc1 (stereo unspecified)", "Subject Of Test": "SF-295 CNS", "Class": "no (0)"}
{"Compound": "CC[C@H](CC[C@@H](C)[C@H]1CC[C@H]2[C@@H]3CC[C@@H]4CC(=O)/C(=C\\c5ccncc5)C[C@]4(C)[C@H]3CC[C@]12C)C(C)C", "Subject Of Test": "SF-295 CNS", "Class": "no (0)"}
{"Compound": "CCN1C(=S)N(CC)C2C1NC(=S)N2/N=C/C=C/c1ccccc1OC (stereo unspecified)", "Subject Of Test": "SF-295 CNS", "Class": "no (0)"}
{"Compound": "Cc1c2cc[nH]c(=O)c2c(C)c2c1[nH]c1ccc(OC(=O)c3ccccc3)cc12", "Subject Of Test": "SF-295 CNS", "Class": "no (0)"}
{"Compound": "O=C(CSc1nnc2sc(Nc3cccc(Cl)c3)nn12)c1ccc(F)cc1", "Subject Of Test": "SF-295 CNS", "Class": "no (0)"}
{"Compound": "Cn1cc(/C=C2/C(=O)Nc3ccccc32)c2ccccc21", "Subject Of Test": "SF-295 CNS", "Class": "no (0)"}
{"Compound": "CCCCN1C(=O)/C(=c2\\sc3n(c2=O)NC2C(N=3)N(CC)C(=O)N2CC)c2ccccc21 (stereo unspecified)", "Subject Of Test": "SF-295 CNS", "Class": "no (0)"}
{"Compound": "CCN=C1C=CC(=C(c2ccc(N(C)C)cc2)c2ccc(N(C)C)cc2)c2ccccc21", "Subject Of Test": "SF-295 CNS", "Class": "yes (1)"}
